Molecular target: UniProt:Q6RI86
Experiment: Antagonist activity at rat TRPA1 expressed in HEK293 cells assessed as inhibition of BITC-induced increase in intracellular calcium concentration by Fluo4-AM based fluorometric assay
pIC50: −log10 of the molar value.
measure: pIC50

# example entries with known answers
>  <compound>
CCOC(=O)C1=C(c2ccccc2)NC(=S)NC1c1cccc(OC)c1 (stereo not drawn)

>  <measure>
pIC50

>  <result>
5.02

$$$$
>  <compound>
COc1cccc(C2NC(=S)NC3=C2C(=O)c2ccccc23)c1OC (stereo not drawn)

>  <measure>
pIC50

>  <result>
5.57

$$$$
>  <compound>
O=C1C2=C(NC(=S)NC2c2cccc(CO)c2)c2ccccc21 (stereo not drawn)

>  <measure>
pIC50

>  <result>
7.36

$$$$

(a) O=C1C2=C(NC(=S)NC2c2cccc(OCCO)c2)c2ccccc21 (stereo not drawn)
(b) COc1ccc(Oc2cccc(C3NC(=S)NC4=C3C(=O)c3ccccc34)c2)cc1 (stereo not drawn)
Of the two listed items, which has the higher pIC50? First: a Second: b Give the chosen item's label as your response.
a
(a: 7.33, b: 6.80)

###

Molecular target: UniProt:O75762
Sequence (O75762 whole entry): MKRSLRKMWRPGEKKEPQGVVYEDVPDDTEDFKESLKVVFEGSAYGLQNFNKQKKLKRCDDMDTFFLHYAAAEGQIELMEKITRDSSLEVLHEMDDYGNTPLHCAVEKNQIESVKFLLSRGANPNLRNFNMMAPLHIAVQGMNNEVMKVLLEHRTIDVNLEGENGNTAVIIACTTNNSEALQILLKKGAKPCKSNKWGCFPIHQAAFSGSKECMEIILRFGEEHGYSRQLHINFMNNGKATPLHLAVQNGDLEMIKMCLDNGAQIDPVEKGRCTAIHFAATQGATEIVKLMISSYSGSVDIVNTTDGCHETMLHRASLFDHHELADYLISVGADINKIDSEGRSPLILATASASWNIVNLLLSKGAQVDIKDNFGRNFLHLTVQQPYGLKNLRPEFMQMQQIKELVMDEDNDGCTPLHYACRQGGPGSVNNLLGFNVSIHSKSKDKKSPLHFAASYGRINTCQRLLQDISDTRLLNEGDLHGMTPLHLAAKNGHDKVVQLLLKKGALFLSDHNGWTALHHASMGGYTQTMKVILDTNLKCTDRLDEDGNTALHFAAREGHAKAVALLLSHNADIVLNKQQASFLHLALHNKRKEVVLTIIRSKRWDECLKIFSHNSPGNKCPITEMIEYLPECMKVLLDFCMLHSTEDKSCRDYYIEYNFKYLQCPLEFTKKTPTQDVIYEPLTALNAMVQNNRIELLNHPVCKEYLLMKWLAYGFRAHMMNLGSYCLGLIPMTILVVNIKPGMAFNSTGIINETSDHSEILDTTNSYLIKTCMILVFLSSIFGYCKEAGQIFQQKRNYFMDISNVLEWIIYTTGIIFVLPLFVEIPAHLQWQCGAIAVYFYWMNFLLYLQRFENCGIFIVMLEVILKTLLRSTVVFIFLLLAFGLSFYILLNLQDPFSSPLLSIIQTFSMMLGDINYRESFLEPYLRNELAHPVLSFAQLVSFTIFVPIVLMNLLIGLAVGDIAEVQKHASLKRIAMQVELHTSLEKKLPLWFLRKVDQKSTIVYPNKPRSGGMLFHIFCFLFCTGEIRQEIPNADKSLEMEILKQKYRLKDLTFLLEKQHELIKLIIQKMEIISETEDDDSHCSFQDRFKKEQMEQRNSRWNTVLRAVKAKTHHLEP
Experiment: Antagonist activity at human TRPA1 expressed in HEK293 cells assessed as inhibition of 5H-dibenzo[b,e]azepine-10-carboxylic acid methyl ester-induced increase in intracellular calcium by Fluo4-AM based fluorometric assay
pIC50: −log10 of the molar value.
measure: pIC50

# example entries with known answers
>  <compound>
O=C1C2=C(NC(=S)NC2c2cccc(F)c2)c2ccccc21 (stereo unspecified)

>  <pIC50>
5.96

$$$$
>  <compound>
O=C1C2=C(NC(=S)NC2c2cccc(CO)c2)c2ccccc21 (stereo unspecified)

>  <pIC50>
6.15

$$$$

(a) COc1ccc(C2NC(=S)NC3=C2C(=O)c2ccccc23)cc1 (stereo unspecified)
(b) COc1ccc(Oc2cccc(C3NC(=S)NC4=C3C(=O)c3ccccc34)c2)cc1 (stereo unspecified)
(c) O=C1C2=C(NC(=S)N[C@H]2c2ccccc2)c2ccccc21
(d) COc1cccc(C2NC(=S)N(C)C3=C2C(=O)c2ccccc23)c1 (racemic)
(e) CCCCOc1cccc(C2NC(=S)NC3=C2C(=O)c2ccccc23)c1 (stereo unspecified)
Would you mind ranking these compounds by ascending pIC50? Return value: ordered labels per request.
c, a, b, e, d

(P) COCCCOc1cccc([C@H]2NC(=S)NC3=C2C(=O)c2ccccc23)c1
(Q) COCCCOc1cccc(C2NC(=O)NC3=C2C(=O)c2ccccc23)c1 (racemic)
Of the two listed items, which has the higher pIC50? First: P Second: Q Give the chosen item's label as your response.
P

###

Biological target: Transient receptor potential cation channel subfamily A member 1 (Rattus norvegicus, UniProt Q6RI86)
Sequence (Q6RI86 whole entry): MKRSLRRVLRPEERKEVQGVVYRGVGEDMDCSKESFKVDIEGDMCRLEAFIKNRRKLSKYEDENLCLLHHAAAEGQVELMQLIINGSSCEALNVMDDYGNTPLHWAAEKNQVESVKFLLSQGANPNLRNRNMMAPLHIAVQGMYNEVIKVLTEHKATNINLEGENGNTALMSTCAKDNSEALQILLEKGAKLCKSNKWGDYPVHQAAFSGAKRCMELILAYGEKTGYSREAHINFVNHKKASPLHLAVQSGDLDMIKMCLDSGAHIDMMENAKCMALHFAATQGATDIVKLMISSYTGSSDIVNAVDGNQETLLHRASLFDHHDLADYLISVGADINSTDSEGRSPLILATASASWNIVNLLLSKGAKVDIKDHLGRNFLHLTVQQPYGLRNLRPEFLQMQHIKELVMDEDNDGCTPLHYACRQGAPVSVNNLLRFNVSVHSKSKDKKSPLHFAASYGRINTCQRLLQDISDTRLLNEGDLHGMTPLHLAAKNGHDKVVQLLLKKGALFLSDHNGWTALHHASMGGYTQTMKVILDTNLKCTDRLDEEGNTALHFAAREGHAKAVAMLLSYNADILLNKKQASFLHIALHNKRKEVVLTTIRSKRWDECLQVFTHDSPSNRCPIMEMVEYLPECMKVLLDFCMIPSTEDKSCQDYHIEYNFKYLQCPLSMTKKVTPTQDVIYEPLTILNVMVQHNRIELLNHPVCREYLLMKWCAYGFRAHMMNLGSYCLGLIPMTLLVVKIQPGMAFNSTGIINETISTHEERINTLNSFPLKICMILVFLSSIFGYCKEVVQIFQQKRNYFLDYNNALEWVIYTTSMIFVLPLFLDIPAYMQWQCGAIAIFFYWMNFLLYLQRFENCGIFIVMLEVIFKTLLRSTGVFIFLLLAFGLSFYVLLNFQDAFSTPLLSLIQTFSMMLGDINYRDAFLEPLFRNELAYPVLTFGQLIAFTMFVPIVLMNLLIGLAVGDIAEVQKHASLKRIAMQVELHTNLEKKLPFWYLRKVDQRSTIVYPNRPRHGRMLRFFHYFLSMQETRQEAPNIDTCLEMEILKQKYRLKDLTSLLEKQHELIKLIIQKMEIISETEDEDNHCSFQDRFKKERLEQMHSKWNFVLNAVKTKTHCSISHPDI
Assay: Antagonist activity at rat TRPA1 expressed in HEK293 cells assessed as inhibition of BITC-induced increase in intracellular calcium concentration by Fluo4-AM based fluorometric assay
measure: IC50 (µM)

(P) O=C1C2=C(NC(=S)N[C@@H]2c2ccccc2)c2ccccc21
(Q) CN(C)CCOc1cccc(C2NC(=S)NC3=C2C(=O)c2ccccc23)c1 (stereo not drawn)
(R) O=C1C2=C(NC(=S)NC2c2ccccc2F)c2ccccc21 (stereo not drawn)
(S) COc1cccc(C2NC(=S)NC3=C2C(=O)c2ccccc23)c1 (racemic)
(T) O=C1C2=C(NC(=S)NC2c2cccc(Br)c2)c2ccccc21 (stereo not drawn)
Hi! Can you put these in order of IC50, lowest number first? Return value: ordered labels per request.
S, T, P, R, Q
(S: 0.02 µM, T: 0.071 µM, P: 0.31 µM, R: 3.39 µM, Q: 8.9 µM)
